Source listed as the supplement of paper PMC10567573.

B1: CDKL4 (parent)
chain: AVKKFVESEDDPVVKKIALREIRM

variants of: B1; assay: protein stability index of a GFP-peptide fusion (GPS, HEK-293T) (PSI 1-6); higher = more stable; settings: c terminus: a fixed tail appended;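 note: lentivirally expressed fusions sorted by FACS into six bins by GFP to DsRed ratio, PSI derived from sequencing read proportions per bin multiplied by bin number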
MEASUREMENT_LABEL: protein stability index
Number only, no unit.

Please report the measured protein stability index for AVKKFVESEDDPWVKKIALREIRM [V13W]
2.49

Please report the measured protein stability index for AVKKFCESEDDPVVKKIALREIRM [V6C]
2.82

Please report the measured protein stability index for AVKKFVESEDDPVVKKIALREIYM [R23Y]
2.27

Please report the measured protein stability index for AVKKFVESEDDWVVKKIALREIRM [P12W]
1.82

Please report the measured protein stability index for AVKKFVESEDDPVVKKIALRKIRM [E21K]
2.48

Please report the measured protein stability index for APKKFVESEDDPVVKKIALREIRM [V2P]
3.74

Please report the measured protein stability index for AVKKFVESEDDPVVKKVALREIRM [I17V]
3.22

Please report the measured protein stability index for AVKKFVESEDDPVVKKIALVEIRM [R20V]
1.46

Please report the measured protein stability index for AVKKFVESEDDPVVKKIALREIAM [R23A]
2.03

Please report the measured protein stability index for AVKKFLESEDDPVVKKIALREIRM [V6L]
3.23

Please report the measured protein stability index for AVKKFVESEDDPVVKKIALREIRI [M24I]
2.97

Please report the measured protein stability index for ARKKFVESEDDPVVKKIALREIRM [V2R]
2.85

Please report the measured protein stability index for AVKKFVESEDDPVVKKIAMREIRM [L19M]
3.16

Please report the measured protein stability index for AVKKFVESEDDPVVQKIALREIRM [K15Q]
2.86

Please report the measured protein stability index for AVKKFVESEDDPVVKKIALRCIRM [E21C]
2.37

Please report the measured protein stability index for AVKKFVESEDDPAVKKIALREIRM [V13A]
3.23

Please report the measured protein stability index for AVKKFVESEDDPVVKKHALREIRM [I17H]
3.33

Please report the measured protein stability index for AVKKFVESEDDPVVKKIALREIRV [M24V]
3.36

Please report the measured protein stability index for AVKKFVESEDDPVVKKIALREWRM [I22W]
2.92

Please report the measured protein stability index for AVKKFVESEDDPVVKKIALREICM [R23C]
2.78

Please report the measured protein stability index for AVKKFVESEDDPVVKKIALRNIRM [E21N]
2.96

Please report the measured protein stability index for AVKKFVESEDDPVVKKIALRESRM [I22S]
3.97
